target entity: human PTHR, G protein-coupled conformation (RG) (Homo sapiens, UniProt Q03431)
Construct: expressed in transfected cells; host or cells: COS-7, transient (Fugene-6); membranes
Sequence (Q03431 27-593): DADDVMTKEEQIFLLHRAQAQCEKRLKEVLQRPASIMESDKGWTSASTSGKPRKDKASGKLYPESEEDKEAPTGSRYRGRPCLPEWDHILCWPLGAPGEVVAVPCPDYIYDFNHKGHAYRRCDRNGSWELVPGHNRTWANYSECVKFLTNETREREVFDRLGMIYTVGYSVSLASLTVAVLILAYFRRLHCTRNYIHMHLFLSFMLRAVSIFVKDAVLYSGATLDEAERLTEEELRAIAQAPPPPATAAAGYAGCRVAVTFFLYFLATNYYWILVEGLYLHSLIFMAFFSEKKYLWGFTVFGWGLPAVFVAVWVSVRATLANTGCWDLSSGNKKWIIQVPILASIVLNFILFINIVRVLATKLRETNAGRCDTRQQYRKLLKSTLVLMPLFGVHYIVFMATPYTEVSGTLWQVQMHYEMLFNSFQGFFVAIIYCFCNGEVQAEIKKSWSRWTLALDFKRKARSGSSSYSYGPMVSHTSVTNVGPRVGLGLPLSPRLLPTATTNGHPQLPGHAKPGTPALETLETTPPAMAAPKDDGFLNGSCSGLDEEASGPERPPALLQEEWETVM
method: Competition binding to RG conformation of hPTHR (COS-7 membranes, GαsND, 125I-[Aib1,3,M]PTH(1-15) tracer); also: test concentration or dose not given here
experimental setup: parent PTHrP(1-28)NH
Ends that are not written are not given here.
measured endpoint: screen human PIR RG (% parent)
Numbers only, in % parent.

Previously resolved entries follow.
{"substance": "E18,N22,A26-PTHrP(1-28) (AVSEHQLLHDKGKSIQDERRRNFLHALI-NH2) [E18, N22, A26-PTHrP(1-28)NH]", "measured result": 140}
{"substance": "E18,W22,K26-PTHrP(1-28) (AVSEHQLLHDKGKSIQDERRRWFLHKLI-NH2) [E18, W22, K26-PTHrP(1-28)NH]", "measured result": 149}

# map each substance to its screen human PIR RG (% parent)
1. A18,L22,K26-PTHrP(1-28) (AVSEHQLLHDKGKSIQDARRRLFLHKLI-NH2) [A18, L22, K26-PTHrP(1-28)NH]
2. A18,N22,K26-PTHrP(1-28) (AVSEHQLLHDKGKSIQDARRRNFLHKLI-NH2) [A18, N22, K26-PTHrP(1-28)NH]

result:
1: 177; 2: 172

# map each substance to its screen human PIR RG (% parent)
1. A18,26,W22-PTHrP(1-28) (AVSEHQLLHDKGKSIQDARRRWFLHALI-NH2) [A18, 26, W22-PTHrP(1-28)NH]
2. E18,L22,A26-PTHrP(1-28) (AVSEHQLLHDKGKSIQDERRRLFLHALI-NH2) [E18, L22, A26-PTHrP(1-28)NH]
3. E18,W22,A26-PTHrP(1-28) (AVSEHQLLHDKGKSIQDERRRWFLHALI-NH2) [E18, W22, A26-PTHrP(1-28)NH]
4. E18,S22,A26-PTHrP(1-28) (AVSEHQLLHDKGKSIQDERRRSFLHALI-NH2) [E18, S22, A26-PTHrP(1-28)NH]

result:
1: 120; 2: 125; 3: 116; 4: 132

Each recorded value in this set is attributed to patent US9057727B2.
